Every entry's value here was drawn from patent US20260258084A1.

assay: Solubility testing of peptides at different pH; format: physicochemical; settings: 50 mM phosphate buffer pH 9.0; target concentration 1 mg/ml; 2 hours agitation; read-out: Solubility Buffer pH 9.0
Positions of bridges follow the written chain, without caps; N, C: chain ends. Non-standard residues stand in square brackets, D forms with d. Residues, ends and D or L forms follow the SMILES beside them. *: point of attachment. 2Nal = N[C@@H](Cc1ccc2ccccc2c1)C(=O)O; αMeL = CC(C)C[C@](C)(N)C(=O)O; Me2NCH2CH2 = CN(C)CC*; Ava = NCCCCC(=O)O
What solubility at 2 h was measured for each of the following?

Any idea what its solubility at 2 h is? The compound is CC(C)C[C@]1(C)NC(=O)[C@H](Cc2ccc3ccccc3c2)NC(=O)[C@H](Cc2ccc(OCCN(C)C)cc2)NC(=O)[C@@H]2CSSC[C@H](NC(=O)CCCCNC(=O)CC[C@@H](C(=O)N[C@@H](CC(N)=O)C(=O)N[C@@H](CC(N)=O)C(N)=O)NC1=O)C(=O)N[C@@H](CC(N)=O)C(=O)N[C@@H]([C@@H](C)O)C(=O)N[C@@H](Cc1c[nH]c3ccccc13)C(=O)N[C@@H](CCC(N)=O)C(=O)N2 [compound 27] ([Ava]CNTWQCY(Me2NCH2CH2)[2Nal][αMeL]ENN-NH2; disulfide 2-7; lactam N-11)
270 µg/mL

Recorded solubility at 2 h for "CC(=O)NCCCC[C@@H]1NC(=O)[C@H](Cc2c[nH]c3c(C)cccc23)NC(=O)[C@@H](NC(C)=O)CCCCNC(=O)[C@@H]2CSSC[C@H](NC1=O)C(=O)N[C@@H](Cc1ccc(OCCN(C)C)cc1)C(=O)N[C@@H](Cc1ccc3ccccc3c1)C(=O)NC1(CCOCC1)C(=O)N[C@H](C(=O)N[C@@H](CC(N)=O)C(=O)N[C@@H](Cc1cccnc1)C(=O)N(C)CC(N)=O)CCCCN(C)CCCCN2C" , please?
620 µg/mL
